Reference source: patent US20140087991A1

Molecular target: FAP (Homo sapiens)
Construct: the extracellular domain of FAP was cloned with a His-6 tag; made in house
Sequence (Q12884 26-760 limits assumed): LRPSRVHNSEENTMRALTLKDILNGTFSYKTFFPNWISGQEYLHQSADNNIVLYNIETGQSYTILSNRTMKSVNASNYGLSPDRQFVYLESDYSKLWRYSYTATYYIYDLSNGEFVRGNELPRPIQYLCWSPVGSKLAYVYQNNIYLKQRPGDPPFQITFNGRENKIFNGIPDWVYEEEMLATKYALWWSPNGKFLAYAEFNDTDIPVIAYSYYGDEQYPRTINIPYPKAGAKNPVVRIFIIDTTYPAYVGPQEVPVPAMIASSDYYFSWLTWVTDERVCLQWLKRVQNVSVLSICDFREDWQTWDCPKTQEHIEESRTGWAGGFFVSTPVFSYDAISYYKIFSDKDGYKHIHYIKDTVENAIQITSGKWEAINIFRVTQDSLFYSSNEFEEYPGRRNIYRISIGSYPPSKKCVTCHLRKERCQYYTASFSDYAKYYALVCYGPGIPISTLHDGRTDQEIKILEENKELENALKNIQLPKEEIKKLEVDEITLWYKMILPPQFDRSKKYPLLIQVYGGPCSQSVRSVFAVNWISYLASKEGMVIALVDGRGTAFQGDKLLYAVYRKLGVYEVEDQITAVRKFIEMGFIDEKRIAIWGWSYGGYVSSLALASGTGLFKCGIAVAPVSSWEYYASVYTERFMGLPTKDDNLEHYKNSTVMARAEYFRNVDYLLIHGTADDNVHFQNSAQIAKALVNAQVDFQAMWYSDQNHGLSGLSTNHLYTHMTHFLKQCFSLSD
Assay: LC-MS/MS cleavage map of FAP digest of 100 kDa recombinant human gelatin
Assay type: biochemical
Settings: 100 kDa gelatin digest; share of all occurrences
TEST_READOUT: Percentage
Please respond with just the number, no unit label.

>  <SUBSTANCE>
P.AGKDGEAGAQGPPGP.A: FAP cleavage fragment of 100 kDa and 8.5 kDa recombinant human gelatin, MH+ 1308.62 (PAGKDGEAGAQGPPGPA)

>  <Percentage>
0.95

$$$$
>  <SUBSTANCE>
D.GRPGPPGPPGARGQAG.V: FAP cleavage fragment, 100 kDa recombinant human gelatin

>  <Percentage>
0.95

$$$$
>  <SUBSTANCE>
P.GPPGAPGP.Q: FAP cleavage fragment, 100 kDa recombinant human gelatin

>  <Percentage>
0.48

$$$$
>  <SUBSTANCE>
P.VGVQGPPGP.A: FAP cleavage fragment, 100 kDa recombinant human gelatin

>  <Percentage>
1.43

$$$$
>  <SUBSTANCE>
A.GPAGPPGP.I: FAP cleavage fragment, 100 kDa recombinant human gelatin

>  <Percentage>
0.48

$$$$

For the substance shown here, D.GQPGAKGEPGDAGAKGDAGPPGP.A: FAP cleavage fragment, 100 kDa recombinant human gelatin , give the reported Percentage.
0.95

For the substance shown here, P.KGAAGEPGKAGERGVPGPPGAVGP.A: FAP cleavage fragment of 100 kDa and 8.5 kDa recombinant human gelatin, MH+ 2113.12 , give the reported Percentage.
2.38

For the substance shown here, P.AGNPGADGQPGAKGANGAPGIAGAPGFPGARGP.S: FAP cleavage fragment, 100 kDa recombinant human gelatin , give the reported Percentage.
1.90

###

Molecular target: FAP (Homo sapiens)
Construct: the extracellular domain of FAP was cloned with a His-6 tag; made in house
Sequence (Q12884 26-760 limits assumed): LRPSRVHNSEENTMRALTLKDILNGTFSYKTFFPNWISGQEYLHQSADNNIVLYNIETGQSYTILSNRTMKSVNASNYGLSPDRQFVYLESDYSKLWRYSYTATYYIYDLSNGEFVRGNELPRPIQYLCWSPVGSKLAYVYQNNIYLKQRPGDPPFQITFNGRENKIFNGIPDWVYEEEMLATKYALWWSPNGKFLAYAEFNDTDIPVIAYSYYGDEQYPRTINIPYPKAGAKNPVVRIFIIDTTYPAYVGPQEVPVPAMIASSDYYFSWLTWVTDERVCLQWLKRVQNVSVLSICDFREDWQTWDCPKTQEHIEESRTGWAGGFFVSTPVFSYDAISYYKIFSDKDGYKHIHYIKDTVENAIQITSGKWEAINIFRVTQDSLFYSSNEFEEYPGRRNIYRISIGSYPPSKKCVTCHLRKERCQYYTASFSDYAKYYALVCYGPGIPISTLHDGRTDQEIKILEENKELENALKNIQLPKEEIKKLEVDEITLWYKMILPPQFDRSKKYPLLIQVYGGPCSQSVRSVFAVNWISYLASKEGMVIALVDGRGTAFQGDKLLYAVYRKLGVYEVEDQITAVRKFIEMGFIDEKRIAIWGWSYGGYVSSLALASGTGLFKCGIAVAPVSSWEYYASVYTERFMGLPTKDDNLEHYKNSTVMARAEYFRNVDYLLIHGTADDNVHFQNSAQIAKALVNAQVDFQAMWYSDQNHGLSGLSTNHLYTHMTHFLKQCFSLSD
Experiment: LC-MS/MS cleavage map of FAP digest of 100 kDa recombinant human gelatin
Assay type: biochemical
Conditions: 100 kDa gelatin digest; share of all occurrences
Known Percentage of a selection of substances

For the substance shown here, G.PSGEPGKQGPSGASGERGPPGP.M: FAP cleavage fragment, 100 kDa recombinant human gelatin , give the reported Percentage.
0.48

For the substance shown here, P.RGPPGSAGAPGKDGLNGLPGP.I: FAP cleavage fragment, 100 kDa recombinant human gelatin , give the reported Percentage.
6.67

###

Target: FAP (Homo sapiens)
Construct: the extracellular domain of FAP was cloned with a His-6 tag; made in house
Sequence (Q12884 26-760 limits assumed): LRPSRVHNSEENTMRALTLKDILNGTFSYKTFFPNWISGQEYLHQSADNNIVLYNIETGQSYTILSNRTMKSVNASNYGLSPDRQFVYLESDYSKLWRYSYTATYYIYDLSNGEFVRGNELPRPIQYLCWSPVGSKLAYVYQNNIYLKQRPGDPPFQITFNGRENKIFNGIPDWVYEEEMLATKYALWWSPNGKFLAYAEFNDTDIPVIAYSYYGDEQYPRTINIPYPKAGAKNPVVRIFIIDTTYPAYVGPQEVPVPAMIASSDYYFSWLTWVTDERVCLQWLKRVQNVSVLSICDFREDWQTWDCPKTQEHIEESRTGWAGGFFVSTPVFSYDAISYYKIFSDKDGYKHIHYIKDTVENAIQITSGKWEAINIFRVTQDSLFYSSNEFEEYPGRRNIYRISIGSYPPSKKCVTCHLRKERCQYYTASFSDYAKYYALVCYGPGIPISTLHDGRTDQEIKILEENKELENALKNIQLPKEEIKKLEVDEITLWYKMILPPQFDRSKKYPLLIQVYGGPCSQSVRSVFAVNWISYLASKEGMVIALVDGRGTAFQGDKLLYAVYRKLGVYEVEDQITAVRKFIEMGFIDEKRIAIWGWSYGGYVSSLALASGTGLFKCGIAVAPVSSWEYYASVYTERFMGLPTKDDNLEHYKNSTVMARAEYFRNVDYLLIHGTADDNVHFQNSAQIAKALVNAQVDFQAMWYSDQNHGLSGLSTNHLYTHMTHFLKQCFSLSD
Assay: LC-MS/MS cleavage map of FAP digest of 100 kDa recombinant human gelatin
Assay type: biochemical
Conditions: 100 kDa gelatin digest
TEST_READOUT: Occurences
Please respond with just the number, no unit label.

>  <SUBSTANCE>
G.PPGAPGAPGAPGPVGPAGKSGDRGETGP.A: FAP cleavage fragment, 100 kDa recombinant human gelatin

>  <ENDPOINT_VALUE>
7

$$$$
>  <SUBSTANCE>
P.AGNPGADGQPGAKGANGAPGIAGAPGFPGARGP.S: FAP cleavage fragment, 100 kDa recombinant human gelatin

>  <ENDPOINT_VALUE>
4

$$$$
>  <SUBSTANCE>
P.AGRPGEVGPPGPPGP.A: FAP cleavage fragment, 100 kDa recombinant human gelatin

>  <ENDPOINT_VALUE>
11

$$$$

Lookup: Occurences / FAP (Homo sapiens) / A.PGAPGAPGPVGPAGKSGDRGETGP.A: FAP cleavage fragment, 100 kDa recombinant human gelatin
4

###

Target: FAP (Homo sapiens)
Construct: the extracellular domain of FAP was cloned with a His-6 tag; made in house
Sequence (Q12884 26-760 limits assumed): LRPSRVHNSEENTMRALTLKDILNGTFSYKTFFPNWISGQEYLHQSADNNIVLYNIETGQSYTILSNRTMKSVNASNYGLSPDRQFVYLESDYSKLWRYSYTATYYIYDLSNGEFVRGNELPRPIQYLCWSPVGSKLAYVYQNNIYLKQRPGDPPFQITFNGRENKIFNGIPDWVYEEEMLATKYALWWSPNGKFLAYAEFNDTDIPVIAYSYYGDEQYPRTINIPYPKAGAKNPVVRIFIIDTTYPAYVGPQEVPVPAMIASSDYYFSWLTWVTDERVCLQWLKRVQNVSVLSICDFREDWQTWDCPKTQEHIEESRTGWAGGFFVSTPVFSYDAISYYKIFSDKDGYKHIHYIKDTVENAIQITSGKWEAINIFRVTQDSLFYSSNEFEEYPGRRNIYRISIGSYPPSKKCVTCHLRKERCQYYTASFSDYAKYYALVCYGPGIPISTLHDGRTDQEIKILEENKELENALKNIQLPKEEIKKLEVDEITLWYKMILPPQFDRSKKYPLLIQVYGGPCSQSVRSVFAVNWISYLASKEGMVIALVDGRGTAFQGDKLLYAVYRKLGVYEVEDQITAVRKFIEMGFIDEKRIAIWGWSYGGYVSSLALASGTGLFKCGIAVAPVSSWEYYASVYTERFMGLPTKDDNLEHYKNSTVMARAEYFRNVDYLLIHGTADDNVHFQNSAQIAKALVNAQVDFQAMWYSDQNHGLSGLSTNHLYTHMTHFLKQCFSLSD
Assay: LC-MS/MS cleavage map of FAP digest of 100 kDa recombinant human gelatin
Type: biochemical
Conditions: 100 kDa gelatin digest
TEST_READOUT: Occurences
Please respond with just the number, no unit label.

Some substances with known Occurences results, for comparison:
>  <SUBSTANCE>
G.PPGPAGPAGPPGP.I: FAP cleavage fragment, 100 kDa recombinant human gelatin

>  <Occurences>
1

$$$$
>  <SUBSTANCE>
V.GPPGPPGPP.G: FAP cleavage fragment, 100 kDa recombinant human gelatin

>  <Occurences>
2

$$$$
>  <SUBSTANCE>
P.GPSGNAGPPGPP.G: FAP cleavage fragment, 100 kDa recombinant human gelatin

>  <Occurences>
1

$$$$
>  <SUBSTANCE>
D.GRPGPPGPPGARGQAG.V: FAP cleavage fragment, 100 kDa recombinant human gelatin

>  <Occurences>
2

$$$$

Please turn your attention to the following entry.
Lookup: Occurences / FAP (Homo sapiens) / G.PPGADGQPGAKGEPGDAGAKGDAGPPGP.A: FAP cleavage fragment, 100 kDa recombinant human gelatin
2
